# subject_of_test: T1, LILRB2 (antigen in solution, Octet RED 96) (UniProt Q8N423 22-460, limits assumed)
# T1 construct: also called LILRB2 solution
# protocol: BLI (Octet RED 96), antibody on protein A biosensor, LILRB2 in solution
value_type: koff (s⁻¹)
The response must be a number in s⁻¹ with no trailing unit.

Task: Read the entry B2-16 (antibody, V domains shown, also called B2-16_HC; B2-16_LC) VH: QVQLVQSGAEVKKPGSSVKVSCKASGGTFSSYAISWVRQAPGQGLEWMGGIIPIFGTANYAQKFQGRVTITADESTSTAYMELSSLRSEDTAVYYCASGIIPDNPYGMDVWGQGTMVSVSS VL: DIVMTQSPLSLPVTLGQPASISCTSSQSLVYSDGNTYLNWFHQRPGQSPRRLFYKVSNRASGVPDRFSGSGSGTDFTLKISRVEAEDLGVYYCMQGTHWPVTFGQGTRLEIK and write its reported koff.
Result: 0.0009
